Record form. Attribute: NORMALIZED SGLT1 ACTIVITY (%). Fill in for each entry.
- Study target: human SGLT1 (hSGLT1) (human)
- Test details: primary screen, percent of control activity; higher = less effect of the substance
- Design: single well
- Conditions: 50 µM
The whole screen tested about 1,900 compounds, of which about 40 (2%) showed an effect of 50% or more. The list comes from a sample in which strong results are over-represented; it also holds close analogues and randomly drawn compounds.
One number for each entry, in %.

The following compounds have reported results that may help.
* O=C(O)c1cc(O)ccc1O | 145
* CC1(C)C(=O)C=C[C@@]2(C)C1C[C@@H](O)[C@]1(C)C2CC[C@@]2(C)[C@H](c3ccoc3)OC(=O)[C@H]3O[C@]321 (stereo partly drawn) | 103
* Nc1ccc(S(=O)(=O)NC(=O)c2ccccc2)cc1 | 100
* Cc1cc(O)c2c(c1O)C(=O)c1c(O)cc(C)c(O)c1C2=O | 127
* CC1(C)C(=O)C=C[C@@]2(C)C1=C(O)C(=O)[C@]1(C)C2CC[C@@]2(C)[C@H](c3ccoc3)C[C@H]3O[C@]321 (stereo partly drawn) | 45

Give measured NORMALIZED SGLT1 ACTIVITY (%) for every item shown.
1. CC(=O)O[C@@H]1C[C@@]2(C)[C@H](c3ccoc3)C[C@H]3O[C@]32[C@]2(C)C(=O)C(O)=C3C(C)(C)C(=O)C=C[C@]3(C)C12 (stereo partly drawn)
2. CCCCC1C(=O)N(c2ccccc2)N(c2ccc(O)cc2)C1=O (stereo not drawn)
3. CC(C)[N+]1(C)C2CC[C@@H]1C[C@@H](OC(=O)C(CO)c1ccccc1)C2.[Br-] (stereo partly drawn)
4. Cc1ccc(O)c(C(CCN(C(C)C)C(C)C)c2ccccc2)c1.O=C(O)C(O)C(O)C(=O)O (stereo not drawn)

### Response
1: 104; 2: 109; 3: 83; 4: 78

###

- Study target: human SGLT1 (hSGLT1) (human, UniProt P13866)
- Sequence (P13866 whole entry, looked up): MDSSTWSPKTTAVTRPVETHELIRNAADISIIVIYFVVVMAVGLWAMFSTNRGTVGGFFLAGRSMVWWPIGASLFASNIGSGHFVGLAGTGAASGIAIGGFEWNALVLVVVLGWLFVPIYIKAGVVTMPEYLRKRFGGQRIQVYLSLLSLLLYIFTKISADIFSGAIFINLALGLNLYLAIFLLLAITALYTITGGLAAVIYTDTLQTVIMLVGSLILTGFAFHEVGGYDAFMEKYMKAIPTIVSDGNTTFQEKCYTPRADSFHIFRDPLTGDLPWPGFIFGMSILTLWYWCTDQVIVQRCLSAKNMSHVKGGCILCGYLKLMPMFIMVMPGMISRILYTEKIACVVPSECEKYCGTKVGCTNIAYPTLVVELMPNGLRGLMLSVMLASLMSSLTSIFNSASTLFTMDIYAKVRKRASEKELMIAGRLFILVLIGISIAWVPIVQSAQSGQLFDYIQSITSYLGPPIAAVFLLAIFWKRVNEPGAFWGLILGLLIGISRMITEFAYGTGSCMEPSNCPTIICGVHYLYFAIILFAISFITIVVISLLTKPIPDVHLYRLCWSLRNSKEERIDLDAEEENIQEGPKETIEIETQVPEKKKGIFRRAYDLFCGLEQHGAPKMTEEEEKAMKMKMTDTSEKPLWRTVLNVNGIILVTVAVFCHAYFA
- Test details: primary screen, percent of control activity; higher = less effect of the substance
- Design: single well
- Conditions: 50 µM
- Experimental: Two days before the assay, CHO‐wild type and CHO‐hSGLT1 cells were seeded in maintenance medium at 25 000 cells/well in clear‐bottom black 96‐well cell culture plates. […] Fluorescence was measured on a Tecan Infinite M200 Microplate Reader (Tecan, Männedorf, Switzerland) with excitation at 445 nm and emission at 525 nm. […] Background corrected uptake with test compound was expressed as a percentage of corrected uptake without test compound.
Hit rate of the full screen: of about 1,900 compounds, about 40 (2%) showed an effect of 50% or more. What follows is part of a selection rich in strong results, with near analogues and random picks from the rest.
Record form. Attribute: NORMALIZED SGLT1 ACTIVITY (%). Fill in for each entry.
Answers are plain numbers, in %.

• Cc1cc(C2CCCCC2)n(O)c(=O)c1.NCCO = 182
• CC1(C)CC[C@]2(C)CC[C@]3(C)C(=CCC4[C@@]5(C)CC[C@H](O)C(C)(C)C5CC[C@]43C)C2C1 (stereo partly shown) = 91
• NC(Cc1c[nH]cn1)C(=O)Nc1ccc2ccccc2c1 (stereo not shown) = 153

Give measured NORMALIZED SGLT1 ACTIVITY (%) for every item shown.
1. Nc1ccn(C2O[C@H](CO)[C@@H](O)[C@H]2O)c(=O)n1 (stereo partly shown)
2. COc1cc(O)c(C(=O)c2ccccc2)cc1O
3. COc1ccc(C(=O)c2ccccc2O)c(O)c1

### Response
[107, 235, 111]

Give measured NORMALIZED SGLT1 ACTIVITY (%) for every item shown.
1. C=Cc1c(C)c2[n]3c1C=c1c(C)c(CC)c4[n]1[Cu]31[n]3c(c(C)c5c3C(=c3c(CCC(=O)[O-])c(C)c([n]31)=C2)C(C(=O)[O-])C5=O)C=4.[Na+].[Na+] (stereo not shown)
2. O=C1c2ccccc2C(=O)C1c1ccccc1

### Response
[94, 111]

Give measured NORMALIZED SGLT1 ACTIVITY (%) for every item shown.
1. CC1(C)CC[C@@]2(C(=O)O)C(C1)C1=CCC3[C@@]4(C)CC[C@H](O)C(C)(C)C4CC[C@@]3(C)[C@]1(C)C[C@@H]2O (stereo partly shown)
2. O=c1ccc2cc(O)c(O)cc2o1

### Response
1: -6; 2: 134
